study target: HIV Env, isolate 3817.v2.c59 (HIV)
measurement protocol: cell-based or functional assay
Property: IC80 (µg/ml) with constrains; scope: individual binders
Respond with the bare value in µg/mL.

// below: answered binders
INSERT INTO results (binder, property_label, endpoint_value) VALUES
  ('ePGDM13 (antibody, V domains shown) VH: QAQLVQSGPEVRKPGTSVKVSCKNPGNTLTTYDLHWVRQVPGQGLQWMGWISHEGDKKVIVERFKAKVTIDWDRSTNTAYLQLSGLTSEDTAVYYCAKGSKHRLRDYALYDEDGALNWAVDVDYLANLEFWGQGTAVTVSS VL: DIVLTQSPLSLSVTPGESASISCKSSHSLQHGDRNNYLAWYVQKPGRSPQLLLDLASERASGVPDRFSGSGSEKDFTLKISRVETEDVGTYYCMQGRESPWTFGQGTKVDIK', 'IC80 (µg/ml) with constrains', 55.9),
  ('ePGDM5 (antibody, V domains shown) VH: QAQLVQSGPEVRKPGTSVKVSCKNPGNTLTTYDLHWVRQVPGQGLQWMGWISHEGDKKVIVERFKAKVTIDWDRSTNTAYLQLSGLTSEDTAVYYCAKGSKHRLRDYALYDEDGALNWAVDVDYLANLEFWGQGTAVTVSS VL: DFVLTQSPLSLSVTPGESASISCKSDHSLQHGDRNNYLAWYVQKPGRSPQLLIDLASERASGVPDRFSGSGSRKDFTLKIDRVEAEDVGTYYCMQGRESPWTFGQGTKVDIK', 'IC80 (µg/ml) with constrains', 0.929);

Please indicate IC80 (µg/ml) with constrains recorded for ePGDM9 (antibody, V domains shown) VH: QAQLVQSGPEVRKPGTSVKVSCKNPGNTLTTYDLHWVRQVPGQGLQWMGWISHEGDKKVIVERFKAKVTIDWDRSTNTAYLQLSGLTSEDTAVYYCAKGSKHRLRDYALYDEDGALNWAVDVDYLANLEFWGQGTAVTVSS VL: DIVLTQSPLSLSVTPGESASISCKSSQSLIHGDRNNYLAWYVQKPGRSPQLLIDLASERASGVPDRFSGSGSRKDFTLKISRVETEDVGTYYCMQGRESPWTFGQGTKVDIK
0.64
